Origin of values: PubChem BioAssay (NCI)

- Test system: NCI-H522 lung
- Measurement protocol: NCI-60 one-dose screen, 48 h
- Protocol conditions: 10 µM unless noted
This is part of a sample that, as a whole, favours compounds with a hit. Of some 83,000 tested, about 20% had one in any assay. Activity calls are given as the source filed them. How the source made its calls: active means growth percent below 10; inactive means the rest.
Please state which outcome applies, choosing from 1.0 (active), 0.0 (inactive)

Give the logged outcome of this assay for the following compound: COc1cc(NC(C)CCCNC(=O)CCC(=O)NCCCNCCCCCCCCNCCCNC(=O)CCC(=O)NCCCC(C)Nc2cc(OC)cc3cccnc23)c2ncccc2c1 (stereo not drawn)
0.0

Query: recorded result category for COC(=O)C1=C(C(=O)ON)C2C=CC1(C(Cc1ccccc1)Nc1ccccc1)O2 (stereo not drawn) in this test
1.0

Could you please tell me the result logged for `C[C@H]1[C@H]2[C@H]3CC[C@@H]4[C@@]5(C)CC[C@H](O)C(C)(C)[C@@H]5CC[C@@]4(C)[C@]3(C)CC[C@]23CO[C@]1(C)[C@@H](C(=O)/C=C\c1ccco1)C3` in this assay?
0.0

Each compound tested received a call. Report the one for `COc1cc(/C(C)=C(\c2ccc(Cl)cc2)c2ccc(OCCN(C)C)cc2)ccc1F` .
0.0

Hi team, can someone confirm the assay call for `O=C(CCN1CCCC1)Nc1ccc2c(NCc3ccccc3)c3ccccc3nc2c1` ?
1.0

Please let me know the test result on file for `CCCCCCOc1ccc(/C=N/Nc2cc(C)nc3ccc(Cl)cc23)cc1` .
1.0

How was `CNC(=O)c1cncc(Cn2nc(C)c(NC(=O)c3ccc(COc4ccc(C(F)(F)F)cc4C)cc3)c2C)c1` classified in this test?
0.0

Could you check what this test reported for `O=C1Nc2cc(-c3cccc([N+](=O)[O-])c3)ccc2/C1=C/c1ccc[nH]1` ?
0.0
